test_details: MTT cytotoxicity in Ea.hy926
Type: cell-based, human
assay_context: human, Ea.hy926 cells; Ea.hy926, 24 h, 1000 μM; read-out: % Cytotoxicity w.r.t. untreated cells
Method: 1. HaCaT, HFF-1 and Ea.hy926 cells were counted and plated in 96 well plates at the density corresponding to 5 X 10^3 cells/well/180 μl of cell growth medium. 2. […] 6. […] The absorbance of each well was then read at 540 nm using Synergy HT micro plate reader. 7. The percentage cytotoxicity at each tested concentration was calculated using the following formula: […]
Where a name gives a salt, the structure may show the parent alone.
property_label: cytotoxicity at 24 h, 1000 µM (%)
# value in %; strip the unit string

Measured cytotoxicity at 24 h, 1000 µM, COC(=O)CCc1ccc(OCC(O)CNC(C)C)cc1 (stereo not shown) [Esmolol hydrochloride] : 12.7

----------
test_details: MTT cytotoxicity in HaCaT
Format: cell-based, human
assay_context: human, HaCaT cells, 48 h, 1 μM, read-out: % Cytotoxicity w.r.t. untreated cells
Counter-ions that a name gives are not always drawn.
property_label: cytotoxicity at 48 h, 1 µM (%)
Reply with just the number (in %).

// COC(=O)CCc1ccc(OCC(O)CNC(C)C)cc1 (stereo not shown) [Esmolol hydrochloride] : cytotoxicity at 48 h, 1 µM value = -6.93

----------
test_details: MTT cytotoxicity in HFF-1
Type: cell-based, human
assay_context: human, HFF-1 cells; HFF-1, 48 h, 50 μM; read-out: % Cytotoxicity w.r.t. untreated cells
Counter-ions that a name gives are not always drawn.
property_label: cytotoxicity at 48 h, 50 µM (%)
Report the figure in % without appending any unit label.

Entry COC(=O)CCc1ccc(OCC(O)CNC(C)C)cc1 (stereo not shown) [Esmolol hydrochloride] , cytotoxicity at 48 h, 50 µM reported as -21.8

----------
test_details: Toxicokinetics in miniature swine
Type: in vivo, Hanford miniature swine
assay_context: both sexes, Hanford, pig, blood, topical or ocular, 400 mg, Week 12, Group 2 swine, topical 400 mg Galnobax Gel BID, mean
Structures can show the parent of a compound that is named as a salt.
property_label: AUC(0-t) (ng·h/mL)
Give just the number in ng·h/mL; leave the unit off.

The value of AUC(0-t) measured for the compound COC(=O)CCc1ccc(OCC(O)CNC(C)C)cc1 (stereo not shown) [Esmolol hydrochloride] turned out to be 17.5

----------
test_details: MTT cytotoxicity in Ea.hy926
Format: cell-based, human
assay_context: human, Ea.hy926 cells; Ea.hy926, 24 h, 100 μM; read-out: % Cytotoxicity w.r.t. untreated cells
Structures can show the parent of a compound that is named as a salt.
property_label: cytotoxicity at 24 h, 100 µM (%)
Note: unit % is implicit; provide only the numeric part.

Note to self: cytotoxicity at 24 h, 100 µM recorded for COC(=O)CCc1ccc(OCC(O)CNC(C)C)cc1 (stereo not shown) [Esmolol hydrochloride] was 2.79

----------
test_details: Toxicokinetics in miniature swine
Assay type: in vivo, Hanford miniature swine
assay_context: both sexes, Hanford, pig, blood, topical or ocular, 400 mg, Week 12, Group 2 swine, topical 400 mg Galnobax Gel BID, mean; read-out: Tmax
Counter-ions that a name gives are not always drawn.
property_label: Tmax (min)
Write the value in min as a bare number.

Please fill in: Tmax reported for COC(=O)CCc1ccc(OCC(O)CNC(C)C)cc1 (stereo not shown) [Esmolol hydrochloride] = 22.8
